These entries and their values trace back to ChEMBL document CHEMBL1143715.

Test: Inhibition of rice alpha glucosidase
Design: species or system Oryza sativa
reported_property: pIC50
The scale used: pIC50 is minus the common logarithm of the concentration in molar units.

Request: Please look up its pIC50: C[C@@H]1[C@@H](O)[C@H](O)[C@@H]2[C@H](O)[C@H](O)[C@@H](CO)N21 (relative stereo) [HYACINTHACINE C4]
Response: 3.96

====

Assay: Inhibition of rat intestinal maltase
Listing of entries alongside the reported pIC50.
The scale used: pIC50 is minus the common logarithm of the concentration in molar units.

>>> obs_value("C[C@H]1[C@H](O)[C@@H](O)[C@@H]2[C@@H](O)[C@H](O)[C@@H](CO)N21 (relative stereo)")
4.11

--- query ---
Request: Please look up its pIC50: C[C@@H]1[C@@H](O)[C@H](O)[C@@H]2[C@H](O)[C@H](O)[C@@H](CO)N21 (relative stereo)
Response: 3.35

====

Listing of entries alongside the reported IC50.
Target: Tissue alpha-L-fucosidase (Homo sapiens, UniProt P04066)
Sequence (P04066 whole entry): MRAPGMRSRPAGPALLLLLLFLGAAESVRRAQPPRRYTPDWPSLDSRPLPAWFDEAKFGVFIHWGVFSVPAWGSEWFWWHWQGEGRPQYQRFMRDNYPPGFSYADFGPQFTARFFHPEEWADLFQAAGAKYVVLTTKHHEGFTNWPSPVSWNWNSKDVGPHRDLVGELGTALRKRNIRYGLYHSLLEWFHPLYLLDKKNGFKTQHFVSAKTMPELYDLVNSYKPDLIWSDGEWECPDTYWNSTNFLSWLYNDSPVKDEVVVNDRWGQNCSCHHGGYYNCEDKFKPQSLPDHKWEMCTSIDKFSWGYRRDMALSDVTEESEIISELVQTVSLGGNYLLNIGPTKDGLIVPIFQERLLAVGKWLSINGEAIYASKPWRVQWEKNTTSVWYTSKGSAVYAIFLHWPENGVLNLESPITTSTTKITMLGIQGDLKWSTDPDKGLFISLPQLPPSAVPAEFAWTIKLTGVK
Give your result in µM as a bare value.

>>> obs_value("CC[C@@H]1N[C@H](CO)[C@@H](O)[C@H](O)[C@@H]1O")
83

--- query ---
Request: Please look up its IC50: OC[C@@H]1C[C@H](O)[C@@H]2[C@H](O)[C@H](O)[C@@H](CO)N12 (relative stereo) [HYACINTHACINE C2]
Response: 17

====

Listing of entries alongside the reported inhibition.
Test system: Canavalia ensiformis
Experiment: Inhibition of jack bean alpha mannosidase at 1000 uM

>>> obs_value("OC[C@@H]1C[C@H](O)[C@@H]2[C@H](O)[C@H](O)[C@@H](CO)N12 (relative stereo)")
"< 50%"
>>> obs_value("OC[C@@H]1C[C@@H](O)[C@@H]2[C@H](O)[C@H](O)[C@@H](CO)N12 (relative stereo)")
"< 50%"
>>> obs_value("CC(O)CC[C@@H]1CC[C@@H]2[C@@H](O)[C@H](O)[C@@H](CO)N12 (some centres not stated)")
"< 50%"

Request: Please look up its inhibition: C[C@H]1C[C@@H](O)[C@@H]2[C@H](O)[C@H](O)[C@@H](CO)N21 (relative stereo)
Response: < 50%

Request: Please look up its inhibition: C[C@@H]1[C@@H](O)[C@H](O)[C@@H]2[C@H](O)[C@H](O)[C@@H](CO)N21 (relative stereo)
Response: < 50%

Request: Please look up its inhibition: C[C@H]1[C@H](O)[C@@H](O)[C@@H]2[C@@H](O)[C@H](O)[C@@H](CO)N21 (relative stereo)
Response: < 50%

Request: Please look up its inhibition: CC[C@@H]1N[C@H](CO)[C@@H](O)[C@H](O)[C@@H]1O
Response: < 50%
